- assay.system: VCAM-1/α4β1 integrin binding (Homo sapiens, UniProt P05556+P13612)
- Construct: Jurkat (ATCC TIB-152), known to express integrin α4β1; endogenous in cells
- Sequence (P13612 34-1032): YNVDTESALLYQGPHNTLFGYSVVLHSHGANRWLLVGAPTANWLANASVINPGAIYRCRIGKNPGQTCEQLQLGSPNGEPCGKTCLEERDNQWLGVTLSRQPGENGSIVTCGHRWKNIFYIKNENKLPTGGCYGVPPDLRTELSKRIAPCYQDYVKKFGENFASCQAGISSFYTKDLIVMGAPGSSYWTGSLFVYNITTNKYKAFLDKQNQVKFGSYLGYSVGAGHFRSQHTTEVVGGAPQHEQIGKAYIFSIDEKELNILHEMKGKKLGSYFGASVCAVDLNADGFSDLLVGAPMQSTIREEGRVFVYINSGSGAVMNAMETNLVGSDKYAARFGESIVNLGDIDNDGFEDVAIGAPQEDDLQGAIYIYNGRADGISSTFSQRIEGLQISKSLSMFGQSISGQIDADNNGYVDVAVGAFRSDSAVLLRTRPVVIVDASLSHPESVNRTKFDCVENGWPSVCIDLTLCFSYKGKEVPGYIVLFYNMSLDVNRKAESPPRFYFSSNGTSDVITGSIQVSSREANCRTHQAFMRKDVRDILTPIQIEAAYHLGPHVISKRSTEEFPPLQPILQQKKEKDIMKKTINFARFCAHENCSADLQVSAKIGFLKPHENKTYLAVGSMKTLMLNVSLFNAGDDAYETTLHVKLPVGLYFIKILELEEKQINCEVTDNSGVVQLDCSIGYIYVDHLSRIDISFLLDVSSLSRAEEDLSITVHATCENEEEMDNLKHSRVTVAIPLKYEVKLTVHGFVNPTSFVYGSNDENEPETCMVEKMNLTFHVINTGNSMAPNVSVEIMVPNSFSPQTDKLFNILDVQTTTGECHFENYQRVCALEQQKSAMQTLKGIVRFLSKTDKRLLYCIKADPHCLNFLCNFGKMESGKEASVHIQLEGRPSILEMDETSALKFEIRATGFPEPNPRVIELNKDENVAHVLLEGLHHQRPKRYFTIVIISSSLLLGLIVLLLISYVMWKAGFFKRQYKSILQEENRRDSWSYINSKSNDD
- Sequence (P05556 21-798): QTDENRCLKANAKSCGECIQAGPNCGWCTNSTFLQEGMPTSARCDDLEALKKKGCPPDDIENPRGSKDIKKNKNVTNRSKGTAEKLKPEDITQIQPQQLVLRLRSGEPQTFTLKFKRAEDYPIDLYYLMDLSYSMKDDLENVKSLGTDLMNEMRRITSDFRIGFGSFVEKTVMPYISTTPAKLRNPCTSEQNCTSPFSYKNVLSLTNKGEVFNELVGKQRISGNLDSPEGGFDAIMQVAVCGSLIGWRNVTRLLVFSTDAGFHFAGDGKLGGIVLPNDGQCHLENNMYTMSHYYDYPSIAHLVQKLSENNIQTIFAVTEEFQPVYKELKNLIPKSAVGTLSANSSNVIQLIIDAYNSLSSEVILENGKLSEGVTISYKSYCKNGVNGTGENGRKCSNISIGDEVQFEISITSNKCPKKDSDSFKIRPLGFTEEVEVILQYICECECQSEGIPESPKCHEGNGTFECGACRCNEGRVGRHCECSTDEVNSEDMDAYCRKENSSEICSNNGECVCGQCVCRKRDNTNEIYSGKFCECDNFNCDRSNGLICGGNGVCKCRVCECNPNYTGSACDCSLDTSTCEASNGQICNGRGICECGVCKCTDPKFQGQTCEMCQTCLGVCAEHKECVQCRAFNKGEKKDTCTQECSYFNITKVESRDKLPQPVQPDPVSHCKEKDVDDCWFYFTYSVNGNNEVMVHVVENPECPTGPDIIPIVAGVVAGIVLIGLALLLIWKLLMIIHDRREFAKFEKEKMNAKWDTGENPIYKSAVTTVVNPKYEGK
- assay.method.text: Assay of antagonistic activity to VCAM-1/α4β1 integrin binding under the existence of blood serum (Jurkat cell adhesion to VCAM-1/Fc)
- experimental.conditions: Jurkat cells, recombinant human VCAM-1/Fc, 50% human blood serum
Would you kindly list pIC50 for each of these compounds?
Numbers only, as −log10 of the molar value.

In the examples that follow, each entry is paired with its recorded pIC50.
compound=CNCCc1cc2c(=O)n(-c3ccc(C[C@H](NC(=O)c4c(Cl)cccc4Cl)C(=O)O)cc3)c(=O)n(C)c2cc1F quantity=pIC50 reported_measurement=7.83
compound="CCC(C)NCc1ccc2c(c1)c(=O)n(-c1ccc(C[C@H](NC(=O)c3c(Cl)cccc3Cl)C(=O)O)cc1)c(=O)n2C (stereo partly drawn)" quantity=pIC50 reported_measurement=8.24
compound="Cn1c(=O)n(-c2ccc(CC(NC(=O)c3c(Cl)cccc3Cl)C(=O)O)cc2)c(=O)c2cc(N3CCOCC3)ccc21 (stereo not drawn)" quantity=pIC50 reported_measurement=8.77
compound=CCCNCc1ccc2c(c1)c(=O)n(-c1ccc(C[C@H](NC(=O)c3c(Cl)cccc3Cl)C(=O)O)cc1)c(=O)n2C quantity=pIC50 reported_measurement=7.74
compound=Cn1c(=O)n(-c2ccc(C[C@H](NC(=O)c3c(Cl)cccc3Cl)C(=O)O)cc2)c(=O)c2ncccc21 quantity=pIC50 reported_measurement=7.80

In the following, a different compound is considered.
I looked up "Cn1c(=O)n(-c2ccc(C[C@H](NC(=O)c3c(Cl)cccc3Cl)C(=O)O)cc2)c(=O)c2cnccc21" and its pIC50 for VCAM-1/α4β1 integrin binding (Homo sapiens, UniProt P05556+P13612) was 7.91
